The values you see were collected from patent US20130143793A1.

# assayTarget: T1, human CCK-B receptor (human, UniProt P32239 1-447)
# T1 sequence (looked up): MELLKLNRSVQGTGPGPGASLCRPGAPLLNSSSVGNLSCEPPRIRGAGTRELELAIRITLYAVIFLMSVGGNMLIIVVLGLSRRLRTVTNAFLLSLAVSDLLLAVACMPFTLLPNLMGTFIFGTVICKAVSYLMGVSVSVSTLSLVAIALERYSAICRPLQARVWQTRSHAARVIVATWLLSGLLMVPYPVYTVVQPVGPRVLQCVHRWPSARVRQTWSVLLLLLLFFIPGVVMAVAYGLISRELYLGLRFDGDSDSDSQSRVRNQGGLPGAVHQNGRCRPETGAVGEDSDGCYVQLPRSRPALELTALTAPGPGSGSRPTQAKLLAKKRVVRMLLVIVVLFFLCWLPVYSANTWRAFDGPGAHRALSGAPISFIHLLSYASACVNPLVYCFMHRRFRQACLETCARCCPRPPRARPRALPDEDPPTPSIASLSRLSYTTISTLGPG
# testDetails: cell-based or functional assay
Square brackets hold non-standard residues; d marks the D form. Ends that are not written are not given here.
Listing of recorded hCCK-B R EC50 (p-ERK) by entry.
reportedProperty: hCCK-B R EC50 (p-ERK)

[[record]]
binder = "HGEGTFTSDLSRYLEEEAVRLFIEFLK[Peg3]YGWLDF-NH2 [[Arg12,Leu14,Phe25,Tyr13]Exendin-4(1-27)-Peg3-[Leu4]Gastrin6]"
endpointvalue = "14 nM"

[[record]]
binder = "HGEGTFTSDLSKQMEEEAVRLFIEWLKDXXYGWLDF (Peg3-Peg3 linker; C-terminal amide) [[Asp28]Exendin-4(1-28)-Peg3-Peg3-[Leu4]Gastrin6]"
endpointvalue = "3.3 nM"

[[record]]
binder = "HGEGTFTSDLSKQMEEEAVRLFIEWLKNYGWFDF (C-terminal amide) [Exendin-4(1-28)-[Phe4]Gastrin6]"
endpointvalue = "140 nM"

[[record]]
binder = "HGEGTFTSDLSKYLEEEAVRLFIEWLK[Peg3][Peg3]YGWLDF-NH2 [[Tyr13,Leu14]Exendin-4(1-27)-Peg3-Peg3-[Leu4]Gastrin6]"
endpointvalue = "8.4 nM"

[[record]]
binder = "HGEGTFTSDLSKQLEEEAVRLFIEFLKXXYGWLDF (Peg3-Peg3 linker; C-terminal amide) [[Leu14,Phe25]Exendin-4(1-27)-Peg3-Peg3-[Leu4]Gastrin6]"
endpointvalue = "7.9 nM"

[[record]]
binder = "HGEGTFTSDLSKYLEEEAVRLFIEFLK[Peg3][Peg3]YGFLDF-NH2 [[Leu14,Phe25,Tyr13]Exendin-4(1-27)-Peg3-Peg3-[Leu4,Phe3]Gastrin6]"
endpointvalue = "1200 nM"

[[record]]
binder = "HGEGTFTSDLSKYMEEEAVRLFIEFLK[Peg3][Peg3]YGWLDF-NH2 [[Tyr13,Phe25]Exendin-4(1-27)-Peg3-Peg3-[Leu4]Gastrin6]"
endpointvalue = "8.4 nM"

